SUBJECT_OF_TEST: UniProt P41145
Sequence (P41145 whole entry): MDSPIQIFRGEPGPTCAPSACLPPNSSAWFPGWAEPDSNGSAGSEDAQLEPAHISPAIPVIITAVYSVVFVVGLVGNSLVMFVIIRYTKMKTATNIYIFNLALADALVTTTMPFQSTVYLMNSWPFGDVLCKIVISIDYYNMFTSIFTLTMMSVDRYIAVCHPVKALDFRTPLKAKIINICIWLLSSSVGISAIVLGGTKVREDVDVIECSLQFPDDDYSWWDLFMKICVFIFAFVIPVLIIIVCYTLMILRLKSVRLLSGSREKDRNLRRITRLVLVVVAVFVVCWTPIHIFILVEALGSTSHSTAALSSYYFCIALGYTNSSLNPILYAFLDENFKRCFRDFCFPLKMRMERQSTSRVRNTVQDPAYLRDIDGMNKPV
TEST_METHOD_NOTES: biochemical
Format: binding
CONDITION_INFO: read-out: Ki(nM) [3H]-Diprenorphin κ
OBSERVABLE: Ki

>>> endpoint_result("COc1cc(CC(=O)N(C)[C@H](CN2CCCC2)c2ccccc2)c(S(=O)(=O)N2CCN(C)CC2)cc1OC")
"1.3 nM"
>>> endpoint_result("COc1cc(CC(=O)N(C)[C@H](CN2CCCC2)c2ccccc2)c(S(=O)(=O)N2CCCC2)c(OC)c1OC")
"2.1 nM"
>>> endpoint_result("COc1cc(CC(=O)N(C)[C@H](CN2CCCC2)c2ccccc2)c(S(=O)(=O)NC(C)(C)C)c(OC)c1OC")
"0.17 nM"
>>> endpoint_result("CNS(=O)(=O)c1cc(OC)ccc1CC(=O)N(C)[C@H](CN1CCCC1)c1ccccc1")
"20.5 nM"
>>> endpoint_result("CN(C(=O)Cc1cc2c(cc1S(=O)(=O)N(C)C)OCO2)[C@H](CN1CC[C@H](O)C1)c1ccccc1")
"0.64 nM"
>>> endpoint_result("COc1cc(CC(=O)N(C)[C@H](CN2CC[C@H](O)C2)c2ccccc2)c(S(=O)(=O)N(C)C)cc1OC")
"0.83 nM"
